- Tested on: A498 renal
- protocol-details: NCI tumour cell line growth inhibition, 48 h
endpoint-name: GI50

A selection of reference data follows.
{"molecule": "CC[C@@H](C)/C=C(C)/C=C/C(=O)c1c(O)c(-c2ccc(OC(=O)[C@@]34CC[C@@](C)(C(=O)O3)C4(C)C)cc2)cn(O)c1=O", "GI50": "5.6 µM"}
{"molecule": "Cc1ccc(N)cc1[As]=[As]c1cc(N)ccc1C (centres undefined)", "GI50": "1.29 µM"}
{"molecule": "NC(=O)c1c(NC(=O)c2cccs2)sc2c1CCC(=O)C2", "GI50": "6 µM"}
{"molecule": "NCCCNc1nc2ccccc2c2c(=O)c3cc(F)ccc3sc12", "GI50": "1.48 µM"}
{"molecule": "CCc1nc(C)cn1C(=O)OCc1nc2nc(Cl)nc(N3CCOCC3)c2[nH]1", "GI50": "1.92 µM"}
{"molecule": "CN1CCC2(CC1)N=C(SCC(=O)Nc1cnc3ccccc3c1)C(c1ccc(Br)cc1)=N2", "GI50": "3.96 µM"}
{"molecule": "CC12OC(CC(O)C1O)n1c3ccccc3c3c4c(c5c6ccccc6n2c5c31)C(=O)N(CCN1CCOCC1)C4=O (centres undefined)", "GI50": "0.838 µM"}
{"molecule": "Cc1ccc(/C=N/NC(=O)c2ccccc2Oc2ccccc2)o1", "GI50": "> 58.5 µM"}
{"molecule": "O=S(=O)(NC1=NCCN1C(=S)SN1CCn2c1nsc2=S)c1ccc(Oc2ccccc2)cc1", "GI50": "34.2 µM"}
{"molecule": "C=CCn1c2ccccc2c2c3c(c4c5ccccc5n(CC=C)c4c21)C(=O)N(O)C3=O", "GI50": "2.55 µM"}

Prompt: Give recorded GI50. O=C1C=C(NCCO)c2nccc3c2c1nc1ccccc13
Completion: 38.2 µM

Prompt: # return recorded GI50 for entry O=C(Nc1ccncc1)C(=O)c1cn(S(=O)(=O)c2cccc(Cl)c2)c2ccccc12
Completion: 25.4 µM

Prompt: Note GI50 for the molecule shown: Cc1nc2sc(C(=O)Nc3cccc(Br)c3C)c(N)c2cc1C(O)c1ccccc1 (centres undefined)
Completion: 0.0181 µM

Prompt: Identify measured GI50 associated with COc1ccc2c(c1)C(=Nc1ccc(F)c(Cl)c1)c1c-2c(Nc2ccc(F)c(Cl)c2)nc2ccccc12
Completion: 28.1 µM
